system-tested: UniProt P08183
measurement-description: Inhibition of Pgp in multidrug-resistant human 2780AD cells assessed as vincristine accumulation at 10 ug/mL relative to control
Assay type: cell-based
Parameters: scale not given: the % may be the effect or the level left
experimental-context: a2780 adr
reported-metric: Activity (%)
// return numeric value only (unit: %, not printed)

As a guide, the following entries are already answered.
{"molecule": "C=C1[C@@H](OC(C)=O)CC[C@@]2(C)C[C@H](OC(C)=O)C3=C(C)C[C@H](OC(=O)/C=C/c4ccccc4)[C@@H]([C@@H](OC(C)=O)[C@H]12)C3(C)C", "result": 280}
{"molecule": "C=C1[C@@H](OC(C)=O)CC[C@@]2(C)C[C@H](OC(C)=O)C3=C(C)C[C@H](OC(C)=O)[C@@H]([C@@H](O)[C@H]12)C3(C)C", "result": 259}
{"molecule": "C=C1[C@@H](OC(C)=O)CC[C@@]2(C)C[C@H](OC(=O)/C=C/c3ccccc3)C3=C(C)C[C@H](O)[C@@H]([C@@H](OC(C)=O)[C@H]12)C3(C)C", "result": 497}

Using the record for `C=C1[C@@H](OC(C)=O)CC[C@@]2(C)C[C@H](OC(=O)/C=C/c3ccccc3)C3=C(C)C[C@H](OC(=O)/C=C/c4ccccc4)[C@@H]([C@@H](OC(C)=O)[C@H]12)C3(C)C` , report its Activity.
122

Now consider `C=C1[C@@H](OC(C)=O)CC[C@@]2(C)C[C@H](O)C3=C(C)C[C@H](OC(=O)/C=C/c4ccccc4)[C@@H]([C@@H](OC(C)=O)[C@H]12)C3(C)C` and answer again.
527

###

measurement-description: Growth inhibition of human WI38 cells
Assay type: cell-based
experimental-context: WI-38
Please use true (1) for IC50 under 100 µM and false (0) for everything else, ties included.

{"molecule": "C=C1[C@@H](O)CC[C@@]2(C)C[C@H](OC(C)=O)C3=C(C)C[C@H](OC(C)=O)[C@@H]([C@@H](OC(C)=O)[C@H]12)C3(C)C", "classification": "false (0)"}
{"molecule": "C=C1[C@@H](OC(C)=O)CC[C@@]2(C)C[C@H](OC(C)=O)C3=C(C)C[C@H](OC(C)=O)[C@@H]([C@@H](OC(=O)c4ccccc4)[C@H]12)C3(C)C", "classification": "false (0)"}
{"molecule": "C=C1[C@@H](OC(C)=O)CC[C@@]2(C)C[C@H](OC(C)=O)C3=C(C)C[C@H](OC(=O)CCC)[C@@H]([C@@H](OC(C)=O)[C@H]12)C3(C)C", "classification": "true (1)"}
{"molecule": "C=C1[C@@H](OC(C)=O)CC[C@@]2(C)C[C@H](OC(C)=O)C3=C(C)C[C@H](OC(=O)C(C)C(C)O)[C@@H]([C@@H](OC(C)=O)[C@H]12)C3(C)C (stereo partly specified)", "classification": "true (1)"}
{"molecule": "C=C1[C@@H](OC(C)=O)CC[C@@]2(C)[C@@H](O)[C@H](OC(C)=O)C3=C(C)C[C@H](OC(C)=O)[C@@H]([C@@H](OC(C)=O)[C@H]12)C3(C)C", "classification": "false (0)"}
{"molecule": "C=C1[C@@H](OC(C)=O)CC[C@@]2(C)C[C@H](OC(=O)/C=C/c3ccccc3)C3=C(C)C[C@H](OC(C)=O)[C@@H]([C@@H](OC(C)=O)[C@H]12)C3(C)C", "classification": "false (0)"}
{"molecule": "C=C1[C@@H](OC(C)=O)C[C@H](O)[C@@]2(C)C[C@H](OC(C)=O)C3=C(C)C[C@H](OC(=O)C(C)C(C)O)[C@@H]([C@@H](OC(C)=O)[C@H]12)C3(C)C (stereo partly specified)", "classification": "false (0)"}
{"molecule": "C=C1[C@@H](OC(C)=O)CC[C@@]2(C)C[C@H](OC(C)=O)C3=C(C)C[C@H](OC(=O)C(C)CC)[C@@H]([C@@H](OC(C)=O)[C@H]12)C3(C)C (stereo partly specified)", "classification": "false (0)"}
{"molecule": "C=C1[C@@H](OC(C)=O)C[C@H](OC(=O)/C=C/c2ccccc2)[C@@]2(C)C[C@H](OC(C)=O)C3=C(C)C[C@H](OC(=O)C(C)CC)[C@@H]([C@@H](OC(C)=O)[C@H]12)C3(C)C (stereo partly specified)", "classification": "false (0)"}

Now for another entry.
Hi there! Is IC50 for `C=C1[C@@H](OC(C)=O)CC[C@@]2(C)C[C@H](OC(C)=O)C3=C(C)C[C@H](OC(=O)CC)[C@@H]([C@@H](OC(C)=O)[C@H]12)C3(C)C` below 100 µM, do you know?
false (0)

###

system-tested: ATP-dependent translocase ABCB1 (Homo sapiens)
Sequence (P08183 whole entry): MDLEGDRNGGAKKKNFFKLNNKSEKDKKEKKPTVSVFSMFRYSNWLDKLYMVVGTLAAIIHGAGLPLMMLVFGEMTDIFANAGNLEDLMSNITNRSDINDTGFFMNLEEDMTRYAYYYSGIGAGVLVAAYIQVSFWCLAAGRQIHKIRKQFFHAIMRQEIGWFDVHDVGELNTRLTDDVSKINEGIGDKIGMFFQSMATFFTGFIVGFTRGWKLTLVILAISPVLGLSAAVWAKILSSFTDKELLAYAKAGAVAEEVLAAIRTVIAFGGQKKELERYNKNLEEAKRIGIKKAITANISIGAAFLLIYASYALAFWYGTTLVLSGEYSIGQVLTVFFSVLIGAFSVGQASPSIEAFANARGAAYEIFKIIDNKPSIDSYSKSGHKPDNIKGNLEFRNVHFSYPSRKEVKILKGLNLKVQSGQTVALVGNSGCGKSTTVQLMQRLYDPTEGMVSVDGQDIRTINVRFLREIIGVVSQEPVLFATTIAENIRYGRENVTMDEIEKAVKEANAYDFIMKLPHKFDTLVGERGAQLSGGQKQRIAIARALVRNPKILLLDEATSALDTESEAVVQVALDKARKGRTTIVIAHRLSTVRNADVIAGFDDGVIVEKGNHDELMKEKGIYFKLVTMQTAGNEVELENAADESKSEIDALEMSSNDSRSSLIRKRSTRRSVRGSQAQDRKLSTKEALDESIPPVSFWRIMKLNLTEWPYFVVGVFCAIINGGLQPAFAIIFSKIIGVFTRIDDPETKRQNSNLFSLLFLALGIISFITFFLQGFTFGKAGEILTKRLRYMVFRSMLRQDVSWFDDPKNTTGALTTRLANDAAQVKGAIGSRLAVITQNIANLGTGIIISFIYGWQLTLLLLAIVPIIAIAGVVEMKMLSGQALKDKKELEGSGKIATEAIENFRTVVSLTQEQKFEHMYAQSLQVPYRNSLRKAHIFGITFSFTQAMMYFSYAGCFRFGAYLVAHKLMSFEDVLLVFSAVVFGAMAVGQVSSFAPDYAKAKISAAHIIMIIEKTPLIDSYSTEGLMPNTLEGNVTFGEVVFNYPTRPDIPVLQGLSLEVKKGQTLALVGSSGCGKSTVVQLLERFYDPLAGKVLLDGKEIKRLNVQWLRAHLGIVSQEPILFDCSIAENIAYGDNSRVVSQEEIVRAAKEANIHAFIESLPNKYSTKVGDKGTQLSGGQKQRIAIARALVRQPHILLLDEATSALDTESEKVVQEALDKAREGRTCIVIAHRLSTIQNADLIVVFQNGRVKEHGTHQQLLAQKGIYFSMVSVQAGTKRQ
measurement-description: Inhibition of Pgp in multidrug-resistant human 2780AD cells assessed as calcein accumulation at 25 ug/mL relative to control
Assay type: cell-based
Set-up: scale not given: the % may be the effect or the level left
experimental-context: a2780 adr
Item-by-item account of Activity
// units = %; emit number, no label

{"molecule": "C=C1[C@@H](OC(C)=O)CC[C@@]2(C)C[C@H](OC(C)=O)C3=C(C)C[C@H](OC(=O)C(C)C)[C@@H]([C@@H](OC(C)=O)[C@H]12)C3(C)C", "Activity / %": 148}
{"molecule": "C=C1[C@@H](OC(C)=O)CC[C@@]2(C)C[C@H](OC(C)=O)C3=C(C)CC[C@@H]([C@@H](OC(C)=O)[C@H]12)C3(C)C", "Activity / %": 91}
{"molecule": "C=C1[C@@H](OC(C)=O)C[C@H](O)[C@@]2(C)C[C@H](OC(C)=O)C3=C(C)C[C@H](OC(=O)C(C)CC)[C@@H]([C@@H](OC(C)=O)[C@H]12)C3(C)C (some centres not stated)", "Activity / %": 110}

Request the reported Activity associated with C=C1[C@@H](OC(C)=O)CC[C@@]2(C)C[C@H](OC(C)=O)C3=C(C)C[C@H](OC(=O)C(C)C(C)O)[C@@H]([C@@H](OC(C)=O)[C@H]12)C3(C)C (some centres not stated) [YUNNANXANE]
168

Field entry: C=C1[C@@H](OC(C)=O)CC[C@@]2(C)C[C@H](OC(C)=O)C3=C(C)C[C@H](OC(=O)C(C)CC)[C@@H]([C@@H](OC(C)=O)[C@H]12)C3(C)C (some centres not stated)
119

C=C1[C@@H](OC(C)=O)CC[C@@]2(C)C[C@H](OC(C)=O)C3=C(C)C[C@H](OC(C)=O)[C@@H]([C@@H](OC(C)=O)[C@H]12)C3(C)C [TAXUYUNNANINE C] , same question.
127

What do you get for `C=C1[C@@H](OC(C)=O)CC[C@@]2(C)C[C@H](OC(C)=O)C3=C(C)C[C@H](OC(=O)/C=C/c4ccccc4)[C@@H]([C@@H](OC(C)=O)[C@H]12)C3(C)C` ?
125

Do the same for `C=C1[C@@H](O)CC[C@@]2(C)C[C@H](OC(C)=O)C3=C(C)C[C@H](OC(C)=O)[C@@H]([C@@H](OC(C)=O)[C@H]12)C3(C)C` please
141

Let us now turn to `C=C1[C@@H](OC(C)=O)CC[C@@]2(C)[C@@H](OC(=O)/C=C/c3ccccc3)[C@H](OC(C)=O)C3=C(C)C[C@H](OC(C)=O)[C@@H]([C@@H](OC(C)=O)[C@H]12)C3(C)C`
125

And what about the molecule `C=C1[C@@H](OC(C)=O)CC[C@@]2(C)C[C@H](OC(C)=O)C3=C(C)C[C@H](OC(C)=O)[C@@H]([C@@H](OC(=O)c4ccccc4)[C@H]12)C3(C)C` ?
125

Then this molecule: `C=C1[C@@H](OC(C)=O)CC[C@@]2(C)C[C@H](OC(C)=O)C3=C(C)C[C@H](OC(=O)CCCC)[C@@H]([C@@H](OC(C)=O)[C@H]12)C3(C)C`
111

And what about the molecule `C=C1[C@@H](OC(C)=O)CC[C@@]2(C)C[C@H](OC(C)=O)C3=C(C)C[C@H](OC(C)=O)[C@@H]([C@@H](O)[C@H]12)C3(C)C` ?
111

// next record `C=C1[C@@H](OC(C)=O)CC[C@@]2(C)C[C@H](O)C3=C(C)C[C@H](OC(=O)/C=C/c4ccccc4)[C@@H]([C@@H](OC(C)=O)[C@H]12)C3(C)C`
190

Repeat with `C=C1[C@@H](OC(C)=O)CC[C@@]2(C)C[C@H](OC(C)=O)C3=C(C)C[C@H](O)[C@@H]([C@@H](OC(C)=O)[C@H]12)C3(C)C`
148

Moving on to `C=C1[C@@H](OC(C)=O)CC[C@@]2(C)C[C@H](OC(=O)/C=C/c3ccccc3)C3=C(C)C[C@H](OC(C)=O)[C@@H]([C@@H](OC(C)=O)[C@H]12)C3(C)C`
126

Proceed to `C=C1[C@@H](OC(C)=O)CC[C@@]2(C)C[C@H](OC(=O)/C=C/c3ccccc3)C3=C(C)C[C@H](OC(=O)/C=C/c4ccccc4)[C@@H]([C@@H](OC(C)=O)[C@H]12)C3(C)C`
80

Just for reference, ChEMBL document CHEMBL1139973 is where these values come from.
